- TARGET_ENTITY: Bacterial 70S ribosome
- PROTOCOL: Competitive inhibition of peptidyl transferase activity of Escherichia coli ribosome using Ac[14C]-L-Phe-tRNA/puromycin as donor/acceptor substrate assessed as acetyl[14C]phenylalanylpuromycin formation by Dixon plot analysis
MEASURED_PROPERTY: Ki (µM)

>>> recorded_measurement("CCCSCC(CO)NC(=O)/C=C/c1c(C)[nH]c(=O)[nH]c1=O (racemic)")
2

* * *

- TARGET_ENTITY: Bacterial 70S ribosome
- PROTOCOL: Competitive inhibition of peptidyl transferase activity of Escherichia coli ribosome using Ac[14C]-L-Phe-tRNA/puromycin as donor/acceptor substrate assessed as acetyl[14C]phenylalanylpuromycin formation by double reciprocal plot analysis
pKi: −log10 of the molar value.
MEASURED_PROPERTY: pKi

>>> recorded_measurement("CCCSCC(CO)NC(=O)/C=C/c1c(C)[nH]c(=O)[nH]c1=O (racemic)")
5.70
>>> recorded_measurement("CCCSC[C@H](CO)NC(=O)/C=C/c1c(C)[nH]c(=O)[nH]c1=O")
5.96
>>> recorded_measurement("CCCCCC(CO)NC(=O)/C=C/c1c(C)[nH]c(=O)[nH]c1=O (racemic)")
5.64
>>> recorded_measurement("CSCSCC(CO)NC(=O)/C=C/c1c(C)nc(O)nc1O (racemic)")
5.96
>>> recorded_measurement("Cc1[nH]c(=O)[nH]c(=O)c1/C=C/C(=O)NC(CO)CSCc1ccccc1 (racemic)")
5.92
>>> recorded_measurement("CSC[S@@+]([O-])CC(CO)NC(=O)/C=C/c1c(C)[nH]c(=O)[nH]c1=O (stereo partly specified)")
6.30
